Hey, just so you know, these numbers are from patent US8288418B2.

# reported melting point; entries follow
observed.property: melting point

> print(dat)
                                   molecule  observed.property         result
1  CC(=NO)c1ccc2c(c1)ncn2-c1cccc(-c2cccnc2O)c1 [Compound 15]      melting point  220 to 223 °C
2  COc1cc(F)ccc1-c1cccc(-n2cnc3cc(C(F)(F)F)ccc32)c1 [Compound 9a]      melting point        95.5 °C
3  CC(O)c1ccc2c(c1)ncn2-c1cccc(-c2cccnc2O)c1 (stereo not shown) [Compound 16]      melting point  133 to 137 °C
4  CC(C)OC(=O)c1ccc2c(c1)ncn2-c1cccc(-c2cccnc2Cl)c1 [Compound 19]      melting point  147 to 150 °C
